Molecular target: natural Fel d1 (cat (Felis domesticus)) (UniProt P30438)
Assay: SPR, mAb captured, nFel d1 injected, 25 C
recorded_endpoint: koff (s⁻¹)
Give bare numbers, in s⁻¹.

Example results:
# binder, koff, s⁻¹
records = [
    ("H4H2606B (antibody, human IgG4, V domains shown) VH: EVQLVESGGGLVKPGGSLRLSCAASGFTFSDYYMNWIRQAPGKGLEWVSYISSSGNSIYYADSVKGRFTISRDNAKNSLFLQMSSLRAEDTAVYYCARDGRYNDRRRGYYWGQGTLVTVSS VL: EIVMTQSPDFQSVTPKEKVTITCRASQSIGSSLHWYQQKPDQSPKLLIKYASQSFSGVPSRFSGSGSGTDFTLTINSLEAEDAATYYCLQSSSLRTFGQGTKVEIKR", 0.000707),
    ("H2M1233N (antibody, mouse IgG2, V domains shown) VH: QVVLVESGGGVVQPGRSLRLSCAASGFTFSSYGMHWVRQAPGKGLEWVAVIWYDGSNKYYVDSVKGRFTISRDNSNNTIYLQMNSLRAEDTAVYYCARSLIPVAGTDPIFGYWGQGTLVTVSS VL: DIQMTQSPSTLSASVGDRVTITCRASQSVSSWLAWYQQKPGKAPKLLIFKASGLESGVPFRFSGSGSGTEFTLTISSLQPDDFATYYCQQYNTYSPTFGQGTKVEIK", 0.000353),
    ("H2M1242N (antibody, mouse IgG2, V domains shown) VH: EVQLVESGGGLVRPGGSLRLSCAASGFTFTSYAMNWVRQAPGKGLEWVSSISSYSSYIYIADSVKGRFTLSRDNAKNSLYLQMHSLRPEDTAVYFCAREGYSAYSYFDFWGRGTLVTVSS VL: DIQMTQSPSTLSASVGDRVTITCRASQSVISWLAWYQQKPGKAPKLLIHRASSLESGVPSRFSGSGSGTEFTLTISGLQPDDFATYYCQQYNTYFPTFGQGTKVEVK", 0.000604),
]

Record koff for all entries; do not skip any.
1. H4H2592B (antibody, human IgG4, V domains shown) VH: QVQLVESGGGLVKPGGSLRLSCAASGFTFSDYYMNWIRQAPGKGLEWISYISSSGSTTYYADSVKGRFTISRDNAKNSLFLQMNSLRGEDTAVYYCARDGRYNTVAGDYWGQGTTVTVSS VL: EIVMTQSPDFQSVAPKEKVTITCRASQNIGGSLHWYQQKPDQSPKLLIKYASQSFSGVPSRFSGSGSGTDFTLTINSLEAEDAATYYCLQSYTLRTFGQGTKVEIKR
2. H2M1237N (antibody, mouse IgG2, V domains shown) VH: QVVLVESGGGVVQPGRSLRLSCAASGFTFSSYGMHWVRQAPGKGLEWVAVIWYDGSIKYYADSVKGRFTISRDNSNNTIYLQMNSLRAEDTAVYYCARALIPVAGTDPIFGYWGQGTLVTVSS VL: DIQMTQSPSTLSASVGDRVTITCRASQSVSSWLAWYQQKPGKAPKLLIFKTSGLESGVPFRFSGSGSGTEFTLTISSLQPDDFATYYCQQYNTYSPTFGQGTKVEIK

Response:
[0.000728, 0.000276]
